- System Tested: Fuc(a1-3)[Gal(b1-4)]GlcNAc(b1-4)Gal(b1-4)[Fuc(a1-3)]GlcNAc(b1-4)Gal(b1-4)[Fuc(a1-3)]GlcNAc
- Measurement Description: glycan array binding signal (z-score within array); higher = stronger binding
- Test Conditions: glycan notation: IUPAC condensed, linker removed
The full list was thinned out, with the strongest signals kept by preference.
Measurement Name: glycan array binding signal (z-score)
One number for each entry.

Reference set, count: 2
Binder | Measurement Name | Value Measured
HPA (Helix pomatia), Q2F1K8 (protein) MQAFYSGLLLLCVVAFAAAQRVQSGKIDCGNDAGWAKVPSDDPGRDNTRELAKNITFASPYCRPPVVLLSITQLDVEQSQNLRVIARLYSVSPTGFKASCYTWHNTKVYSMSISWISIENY | glycan array binding signal (z-score) | -0.09
CLEC7A (Homo sapiens), Q9BXN2 (protein) MEYHPDLENLDEDGYTQLHFDSQSNTRIAVVSEKGSCAASPPWRLIAVILGILCLVILVIAVVLGTMAIWRSNSGSNTLENGYFLSRNKENHSQPTQSSLEDSVTPTKAVKTTGVLSSPCPPNWIIYEKSCYLFSMSLNSWDGSKRQCWQLGSNLLKIDSSNELGFIVKQVSSQPDNSFWIGLSRPQTEVPWLWEDGSTFSSNLFQIRTTATQENPSPNCVWIHVSVIYDQLCSVPSYSICEKKFSM | glycan array binding signal (z-score) | 0.278

For the next question, use this binder.
Q: Requested read-out: glycan array binding signal (z-score). Entry: HPAIIITrx (Helix pomatia), Q1KM18 (protein) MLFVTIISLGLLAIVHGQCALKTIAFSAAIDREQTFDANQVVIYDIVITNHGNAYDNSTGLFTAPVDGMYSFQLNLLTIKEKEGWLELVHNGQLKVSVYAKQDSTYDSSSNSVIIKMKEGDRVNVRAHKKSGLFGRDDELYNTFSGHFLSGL
Result: -0.564

Cited source: the supplement of paper PMC8728848
